- Tested on: MOLT-4
- test: Tested for cytotoxicity in Molt-4 cells by XTT assay
- Assay type: functional, cell-based
- assay conditions: Homo sapiens
pIC50: −log10 of the molar value.
Each record here notes measured pIC50.
value type: pIC50

1) C[C@H]1[C@@H](C)Oc2c3c(c4c(-c5ccccc5)cc(=O)oc4c2[C@@H]1O)OC(C)(C)C=C3 = 4.82
2) C[C@@H]1[C@H](O)c2c(c3c(c4c(-c5ccccc5)cc(=O)oc24)OC(C)(C)C=C3)O[C@@H]1C = 4.48
3) C[C@@H]1[C@@H](C)Oc2c3c(c4c(-c5ccccc5)cc(=O)oc4c2[C@@H]1O)OC(C)(C)C=C3 = 4.60
4) C[C@H]1[C@H](O)c2c(c3c(c4c(-c5ccccc5)cc(=O)oc24)OC(C)(C)C=C3)O[C@@H]1C = 4.26
5) C[C@H]1Oc2c3c(c4c(-c5ccccc5)cc(=O)oc4c2C(=O)[C@@H]1C)OC(C)(C)C=C3 = 4.74
6) CC(C)=CCN1Cc2cc(Cl)cc3[nH]c(=S)n(c23)C[C@@H]1C = 4.72
7) C[C@@H]1C(=O)c2c(c3c(c4c(-c5ccccc5)cc(=O)oc24)OC(C)(C)C=C3)O[C@@H]1C = 5.21
